Tested on: MS2 coat protein
Assay: apparent KD of MS2 coat protein; designed switch direction (-1 OFF switch, 1 ON switch): 1; higher = weaker reporter binding
Conditions: Eterna round: R95; input ligand: microRNA oligo, concentration not stated
Lab note: compare apparent KD of MS2 coat protein against 100 nM. Equal or greater, write yes. Smaller, write no.

Solved entries:
record_sequence="UCUUGGUUUUUGCUCGUUUUUUGUGUUGAACAUGAGGAUCACCCAUGUAUUGUACAAUCCGAUUUAAUAAUGGUCCG [JMF 50] (puzzle: Sensor for hsa-mir-208a)" classification=no
record_sequence="CAGCGCUGUCGAGAGGAUAUGCGGUGAUGGACAUGAGGAUCACCCAUGUUAGCGACAGCAUCACGGCAGAAGGCUCUACCGCCUG [Soteed Omei mod 43] (puzzle: Same State 2)" classification=no
record_sequence="GAUUAACAUGAGGAUCACCCAUGUCGUAUUAUGGGAGGAUAUACGUGGACCGUAGUCCGCGUAGAAGGCCUAAUUG [JL-ss1-3.21 janelle mod] (puzzle: Same State 1)" classification=no
record_sequence="GGAGCCGGCACUGAGGAUAUUCAUAUUAAAACAUGAGGAUCACCCAUGUGGGCCAGAAGGCCUUGGGAGAAGGCAGGUCGACUCG [Diqureveri - 3] (puzzle: Same State 2)" classification=yes
record_sequence="UUAAAACAUGAGGAUCACCCAUGUCAACAAAGUCGAGGAUAUGGGCAAAUAAAAUAAGAACCAGAAGGCGAAUAAC [salish99_SS1_r3_007] (puzzle: Same State 1)" classification=yes

Query sequence follows.
Please check the record UUUAGUUGCGCGCAGGAUAUGUAUUAAUAUACAUGAGGAUCACCCAUGUGAGACCAAAUAGGUCUGCAGAAGGGCGAAUCGCGAC [Laonerce - 28] (puzzle: Same State 2) and state if its apparent KD of MS2 coat protein is at or above 100 nM.
yes

###

System: K4 kissing-loop RNA reporter;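 also: bound reporter read as fluorescence of individual clusters on recovered sequencing chips by microscopy, with normalized cluster intensities fitted with a binding model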
Test: apparent KD of K4 kissing-loop reporter; higher = weaker reporter binding
Conditions: Eterna round: R107; input ligand: arginine 13.2 mM
Note to self: values exactly at 0.2 µM are criterion met. So apparent KD of K4 kissing-loop reporter at or above 0.2 µM is criterion met, below is criterion not met.

I'd appreciate it if you could say whether UGAUACCAGACGGCCGCCACUGCACCAGUCAAUGACUGAGUGUGGUAAUGCUCAGUGAUGUUGAGUAGGACCGGGUCUGGUAUCU [Mod of Eli's TrypBX 8 v2] has apparent KD of K4 kissing-loop reporter at least equal to 0.2 µM.
criterion not met

apparent KD of K4 kissing-loop reporter >= 0.2 µM for UUUUAAAUGUCUGAUACCAGAGAAAAUAUAUGUAGUGAUGUUAUAUACAAAAUAAAUAAGCUCCCUUGGCAGCAGUAUUAAUUUU [AstrosExc-TheB#6] ?
criterion met

Textbook exercise: given the entry GACGUGCGAGAGACCGCUCUACCUUGAGAUCGAGGACCGGUACGGCCGCCACUCGGUGUUUAACGUCGAUCCCAGUGAUGUUGGA [theeternabot_sameState_KL_Trp_A_21] , state whether its apparent KD of K4 kissing-loop reporter is greater than or equal to 0.2 µM.
criterion met

Kindly determine if apparent KD of K4 kissing-loop reporter recorded for AACUGUCAAGGACAACAUUACUGCAGUGAUACCAGCAUCGAAAGAUGCCCUUGGCAGCACUAACUUGCAGUGAUGUUGCAAGUAA [BrourdMod 4 - Jieux - Exclusion - Theophylline A] is above or exactly 0.2 µM.
criterion met

Please tell me: is the sequence AGACUACCACACUGUCAAUAGACAGUGGACUAGGAUAUGCUGAUAAGCAGAAGGAGUGAUGUUCCUCGGUAGUCAAUAAAAUAAU [FmnAX 13 G28+C67] at or over 0.2 µM in terms of apparent KD of K4 kissing-loop reporter?
criterion met

Threshold query (apparent KD of K4 kissing-loop reporter >= 0.2 µM) on AGCAAUAUCACGGCCGCCACUGAAUAUUGUUUUUAUAUUUAUAAAUCUUGCCAGUGAUGUUGGUUCAGGACCGGGUGAGUUAAUA [JR_SSTryptoB_Sub004]
criterion met

Hello, I need to know if CGCGUACAGUGUUCUACGGCCGAGAGUGAUACCAGCCGUAUUUGUGGCCCUUGGCAGCGCAGAUGCAGUGAUGUUGCAUACUUGG [Same State Theophylline A GF 21] has measured apparent KD of K4 kissing-loop reporter not below 0.2 µM. Thanks!
criterion not met

Can CUGUCAUGGGAUGGGCCAGUGAUGUUGGGCCGAGGACCGGUACGGCCGCCACUCGUAGCACAGUGCGCGCUAGCAUUGUACGUCA [theeternabot_exclusion_KL_Trp_A_35] be said to have apparent KD of K4 kissing-loop reporter at or above 0.2 µM?
criterion met

In plain terms: is recorded apparent KD of K4 kissing-loop reporter at least 0.2 µM for AAGUCAUAUAGAAGGAGCGUGUUUUUUAAUUUAUUUUCAUGAUCGAGUGAUGUUCGAUAUACACAGGUAGGUCGCUGUAUAAUAA [hbob_SS_Arginine_B_2t141] ?
criterion not met

Would you say UUUUUGGAGAAUUAUAGUGAUGUUAUGAAGGAGGAUAUCUGGAGAUGGAGAAGGCCUAGUGGCUCAGCCCUCGCGGGUGGGUGGG [ExFMNA.aD] shows apparent KD of K4 kissing-loop reporter at minimum 0.2 µM?
criterion met

Kindly determine if apparent KD of K4 kissing-loop reporter recorded for GCGCGUCAUGUCAGCGGUGACUAUGUCGAUACCAGCAGGGAAACCUGCCCUUGGCAGCGACGCGCUGGAGUGAUGUUCCGACGGC [#2 Exclusion - Theophylline A Attempt #8 (HarryS)] is above or exactly 0.2 µM.
criterion not met

Is apparent KD of K4 kissing-loop reporter at least 0.2 µM? Consider CGCUUGCACGGAAGGAGCGUCCAAGCGAGACACGAGUGAUGUUCGUGAUCGACGUAAACUGGACAGGUAGGUCGCCGUGCUUAAU [Eresti]
criterion not met

Given the entry UGUCAUUGGUCUGAUACCAGUUGAUGACGAAUACGUCAACUGGAGUGAUGUUCCAAUAACAACCCUUGGCAGCAGACCGAUGACU [MAT - Same State Theophlline B - Mod of Eli - D3] , answer whether its apparent KD of K4 kissing-loop reporter meets or surpasses 0.2 µM.
criterion met

Evaluate AUUACAUCUGAAAAGCUAGUGAUGUUAGCUCGAGGACCGGUACGGCCGCCACUCGCAUAGCGAGGCCAAGUCGCGGUUAACGGAG [theeternabot_exclusion_KL_Trp_A_4] : apparent KD of K4 kissing-loop reporter at minimum 0.2 µM?
criterion not met

Determine whether measured apparent KD of K4 kissing-loop reporter meets or exceeds 0.2 µM for GGCACGGUAACGCAACCGCCGUGCGCUUGGGAGGAUAUGUUUCGUGACAGAAGGCCCAGUGAUGUUGGGUCUGUUCAAAAGGACU [Ceenerus]
criterion not met

###

Test system: MS2 coat protein
Test: apparent KD of MS2 coat protein; designed switch direction (-1 OFF switch, 1 ON switch): -1; higher = weaker reporter binding
Details: input ligand: microRNA oligo, concentration not stated
Short version: apparent KD of MS2 coat protein at least 30 nM is true, less is false.

Below are worked cases with known answers.
record_sequence="UUCGUGCAGCAAAGCUGUACGCGUACAUGAGGAUCACCCAUGUAGGAUAUGGUAGGCAAAGCUUACUAGAAGGAUAUGGUGAGC [Mat - Exclusion NG 3 - Mod of JL - D80] (Eterna round: R96, puzzle: Exclusion NG 3)" classification=true
record_sequence="GCGCACCUACCAAAAGGUAGGCCAACAUGAGGAUCACCCAUGUAGGAUAUCGAUUGCUUUGCAGUCGAGAAGGACAUGAUGCGC [JL ENG3 3.80 Mod 8] (Eterna round: R96, puzzle: Exclusion NG 3)" classification=false
record_sequence="GCGGACUAGAACGUGAGUUCUGAGACAUGAGGAUCACCCAUGUAGGAUAUCGAUUCGAAACGAAUCGAGAAGGGCAUAGUCCGC [JL denovo 11] (Eterna round: R96, puzzle: Exclusion NG 3)" classification=false

Hi, just wondering whether UACAUGAGGAUCACCCAUGUUUUGUCGUGUAUGGUAUUUAUCUAGGAUAUCAAUUUGGUUAUUUAUGAGAAGGAGAAUAUUAAU [JMF's solution 66] (Eterna round: R96, puzzle: Exclusion NG 3) shows apparent KD of MS2 coat protein of 30 nM or higher.
true

###

// reported apparent KD of MS2 coat protein for each item listed
Tested on: MS2 coat protein
Experiment: apparent KD of MS2 coat protein; designed switch direction (-1 OFF switch, 1 ON switch): -1; higher = weaker reporter binding
Conditions: input ligand: none
Give just the numeric value; nM need not be written.

apparent KD of MS2 coat protein lookup needed for CUCUCUCAUGUGAGGAUAUCGAGGCAGUCCGCAAACGAGAAGGUACAUGAGGAUCACCCAUGUCAACAGUAAUG [BmEX4 C.8] (Eterna round: R97, puzzle: Brourd's mod of Exclusion 4) , thanks.
33
